Reference source for all entries: the supplement of paper PMC10290057

# Tested on: HCT116;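 note: HCT116 colorectal carcinoma cells screened at five concentrations per compound, luminescent viability scaled between DMSO wells and empty wells on each plate, curves fitted per compound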
# Assay: AC50 cell viability (CellTiter-Glo); higher = less potent
# Assay setup: 48 h
Listing of recorded log10(AC50 cell viability) by entry.
Measured parameter: log10(AC50 cell viability) (log10 of the value in µM)

* Cc1oncc1C(=O)Nc1ccc(C(F)(F)F)cc1 [Leflunomide] | 0.52
* O=C([O-])C[C@H](O)C[C@H](O)/C=C/c1c(C2CC2)nc2ccccc2c1-c1ccc(F)cc1 | 1.17
* COc1cc(Nc2ncc(F)c(Nc3ccc4c(n3)NC(=O)C(C)(C)O4)n2)cc(OC)c1OC | 0.57
* COC(C)(C)CCn1nc(Nc2c(C)cccc2C)c2cnc(Nc3ccc(OCCN4CCCC4)c(F)c3)nc21 | 1.17
* COC[C@H]1OC(=O)C2=COC3=C2[C@@]1(C)\C4=C(C5CCC(=O)[C@@]5(C)C[C@H]4OC(C)=O)/C3=O (stereo partly drawn) [17_-hydroxy Wortmannin] | -0.33
* Cc1cc(N2CCOCC2)ccc1Nc1nc(NC2CCCCC2)c2nc[nH]c2n1 | 0.82
* CCN1/C(=C/C(C)=O)Sc2ccc(OC)cc21 | 1.17
* CO[C@@H]1[C@H](N(C)C(=O)c2ccccc2)C[C@H]2O[C@]1(C)n1c3ccccc3c3c4c(c5c6ccccc6n2c5c31)C(=O)NC4 | 0.17
